Reported values of Bmax for individual entries
- target.or.test.system: T1, full length human GLP-1R with N-terminal FLAG tag and C-terminal GFP tag, on CHO cells (human, UniProt P43220 24-463)
- T1 construct: whole, on cells; the cell line itself is tied to UniProt P43220; also called FLAG-GLP-1R-GFP; CHO-GLP-1R
- procedure.summary: flow cytometry titration, CHO GLP1R cells
The reply should be a number, written without any unit.

| binder | Bmax |
| --- | --- |
| GLP1R-222-082 (antibody, V domains shown, IgG) VH: QVQLVESGGGVVQPGRSLRLSCAASGFTFSAYSMHWVRQAPGKGLEWVALISYDATNKYYADSVKGRFTISRDNSKNTLYLQMNSLRAEDTAVYYCAKHMSMQEGAVTGEFQAAKEFIAWLVKGRVRADLVGDAFDVWGQGTLVTVSS VL: QSVLTQPPSVSAAPGQKVTISCSGSSSNIGSKYVSWYQQLPGTAPKLLIYDNNKRPSGIPDRFSGSKSGTSATLGITGLQTGDEADYYCGTWDISPSAWVFGGGTKLTVL | 135000 |

Next up:
Record summary for GLP1R-222-014 (antibody, V domains shown, IgG) VH: QVQLVESGGGVVQPGRSLRLSCAASGFAFSNYGMHWVRQAPGKGLEWVSFISYDESNKYYADSVKGRFTISRDNSKNTLYLQMNNLRAEDTAVYYCAKHMSMQEGAVTGEWQAAKEFIAWLVKGRVRADLVGDAFDVWGQGTLVTVSS VL: QSVLTQPPSVSAAPGQKVTISCSGSSSNIGNHDVSWYQQLPGTAPKLLIYDNNKRHSGIPDRFSGSKSGTSATLGITGLQTGDEADYYCGTWDTSLSAGVFGGGTKLTVL : reported Bmax = 213000
